Kindly state pIC50 for each of the entries shown.
Target: cGMP-specific 3',5'-cyclic phosphodiesterase (Cavia porcellus)
Experiment: Inhibition in vitro of Phosphodiesterase 5 isolated from guinea pig lung
In textbook form, pIC50 equals minus log to base ten of the concentration in mol/L.

## Task Quick check: pIC50 of `COc1cc2cc(CO)c(CO)c(-c3cc(OC)c(OC)c(S(C)(=O)=O)c3)c2cc1OC` ?
## Result 4.28

## Task Then `COc1cc2cc(CO)c(CO)c(-c3cc(OC)c(OC)c(C(=O)N(C)C)c3)c2cc1OC` ?
## Result 4.52

Cited source: BindingDB's records for doi:10.1021/jm9509096
